B1: TPR t1 (parent)
chain: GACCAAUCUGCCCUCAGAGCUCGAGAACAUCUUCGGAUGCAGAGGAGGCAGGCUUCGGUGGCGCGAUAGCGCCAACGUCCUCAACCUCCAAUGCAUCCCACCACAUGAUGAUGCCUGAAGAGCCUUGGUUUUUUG

# Variants of: B1
# test.details: polymerase ribozyme fitness, log enrichment relative to wild type (log ratio); higher = more active; in vitro selection for triplet polymerase activity
Collected polymerase ribozyme fitness (log ratio) values appear next to each entry.

[
  {
    "residue.change": "G47A C70A G77A C79U C86G",
    "result": -5.44
  },
  {
    "residue.change": "C3A C15A",
    "result": -3.67
  },
  {
    "residue.change": "G60A C64A C80U C97A C115A U125A U126G",
    "result": -7.2
  },
  {
    "residue.change": "A26G G120A",
    "result": -0.696
  },
  {
    "residue.change": "A68U C115A G120C",
    "result": -7.66
  }
]

Identify measured polymerase ribozyme fitness (log ratio) associated with C11G C22G C53G C70U C82U
-4.01

Answer with reported polymerase ribozyme fitness (log ratio) of C64U G120U
0.23

Give me measured polymerase ribozyme fitness (log ratio), please, for this variant: U14G C72A
-2.6

Fill in reported polymerase ribozyme fitness (log ratio) for this entry: C8G C11U U21C C34U
-3.99

Input G71U C82G , output reported polymerase ribozyme fitness (log ratio).
-1.17

Recall and state the measured polymerase ribozyme fitness (log ratio) for G93U C94U .
-1.22

Dear colleague, please send me the reported polymerase ribozyme fitness (log ratio) for C12U A46C A75U when you can.
-0.187
